Please go through the items and note down their pIC50.
- Subject of test: Protein cereblon/Interleukin-1 receptor-associated kinase 4 (Homo sapiens, UniProt Q96SW2+Q9NWZ3)
- Sequence (Q9NWZ3 whole entry): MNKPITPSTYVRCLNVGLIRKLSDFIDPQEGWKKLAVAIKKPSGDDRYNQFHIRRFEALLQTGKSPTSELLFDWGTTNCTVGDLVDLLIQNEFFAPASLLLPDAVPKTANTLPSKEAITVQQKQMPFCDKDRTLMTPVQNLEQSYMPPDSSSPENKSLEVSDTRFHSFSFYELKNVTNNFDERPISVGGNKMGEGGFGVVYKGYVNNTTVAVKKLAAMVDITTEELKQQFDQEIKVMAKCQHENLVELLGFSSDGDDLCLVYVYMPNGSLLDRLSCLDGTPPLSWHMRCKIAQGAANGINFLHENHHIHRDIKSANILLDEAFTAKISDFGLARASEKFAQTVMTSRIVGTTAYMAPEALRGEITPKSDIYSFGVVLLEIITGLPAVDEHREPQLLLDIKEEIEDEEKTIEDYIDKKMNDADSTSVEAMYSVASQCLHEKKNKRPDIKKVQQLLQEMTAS
- Sequence (Q96SW2 whole entry): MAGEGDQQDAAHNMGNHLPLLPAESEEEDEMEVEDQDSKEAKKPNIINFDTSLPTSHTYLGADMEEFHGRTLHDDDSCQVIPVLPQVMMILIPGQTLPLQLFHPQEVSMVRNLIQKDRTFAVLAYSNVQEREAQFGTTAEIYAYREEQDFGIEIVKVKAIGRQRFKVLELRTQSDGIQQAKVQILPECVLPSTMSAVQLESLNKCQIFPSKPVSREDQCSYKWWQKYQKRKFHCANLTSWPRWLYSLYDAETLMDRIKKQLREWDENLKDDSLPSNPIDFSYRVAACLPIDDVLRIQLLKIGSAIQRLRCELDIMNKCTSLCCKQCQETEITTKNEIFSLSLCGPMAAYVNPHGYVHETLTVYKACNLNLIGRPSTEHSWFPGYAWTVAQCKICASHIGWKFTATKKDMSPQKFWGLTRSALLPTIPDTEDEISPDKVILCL
- Protocol notes: Binding affinity to CRBN/IRAK4 in human PBMC cells assessed as inhibition of LPS-stimulated IL-6 production incubated for 24 hrs by MSD analysis
pIC50: −log10 of the molar value.

compound Cn1cc2c(n1)C(=O)NCCn1cc(cn1)-c1ccc(=O)n(n1)Cc1cccc(c1)C(=O)N2 , pIC50 observed: > 7.00

Short answer for Cn1cc2c(n1)C(=O)NCC1CN(CCO1)C(=O)OCCn1cc(cn1)-c1cccc(n1)C(=O)N2 (stereo not drawn) : pIC50 was 7.00

Record O=C1Nc2nc3ccccc3n2Cc2cc(ccn2)-c2ccc(=O)n(n2)Cc2cccc1c2 , field pIC50: > 7.00

Sourced from ChEMBL document CHEMBL5634072
